PROTOCOL NOTES: MDA-MB-436 breast carcinoma cell growth inhibition, synergistic combos for chromothripsis tumors, BGB or cisplatin combos (AID 1671458);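 note: cells exposed for 96 hours; 0% = vehicle DMSO and 100% = killing by high DMSO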
CONDITIONS USED: MDA-MB-436 breast carcinoma growth inhibition, drug combinations; measured here: cisplatin combination; at 5 µM; stronger effect = higher value
MEASURE NAME: inhibition (%)
The answer is to be given in %; state only the numeric part.

Indicate its recorded inhibition; the compound in question is N=C(N=C(N)N)N1CCOCC1
-8.98

Indicate its recorded inhibition; the compound in question is O=c1cc[nH]c(=O)[nH]1
-24

Indicate its recorded inhibition; the compound in question is O=C(CCCCCCC(=O)Nc1ccccc1)NO
36.6

Indicate its recorded inhibition; the compound in question is O=c1[nH]c(=O)n([C@H]2C[C@H](O)[C@@H](CO)O2)cc1Br
-6.5

Indicate its recorded inhibition; the compound in question is Nc1ncn([C@H]2C[C@H](O)[C@@H](CO)O2)c(=O)n1
4.64

Source: PubChem BioAssay
